system: rice (Oryza sativa); assay: Test C flooded paddy test; format: in vivo; conditions: Flood, 62 g ai/ha; scale 0 to 100
Measured Quantity: Plant response rating, Rice

> print(dat)
                                   molecule          test.target            measured.quantity  observed.measurement
1  CCOC(=O)c1nc(-c2ccc(Cl)cc2)nc(N)c1Br [Compound 37]  rice (Oryza sativa)  Plant response rating, Rice                     0
2  Nc1nc(C2CC2)nc(C(=O)OCc2ccccc2)c1Br [Compound 22]  rice (Oryza sativa)  Plant response rating, Rice                    20
3  CCOC(=O)c1nc(C2CC2)nc(N)c1Cl [Compound 4]  rice (Oryza sativa)  Plant response rating, Rice                     0
4  COC(=O)c1nc(C2CC2)nc(N)c1Br [Compound 2]  rice (Oryza sativa)  Plant response rating, Rice                     0
5     Nc1nc(C2CC2)nc(C=O)c1Br [Compound 26]  rice (Oryza sativa)  Plant response rating, Rice                     0
